Target: T1, human IL-23 (human, UniProt Q9NPF7 20-189; P29460 23-328)
T1 construct: Heterodimer of p19 and p40; also called hIL-23
T1 sequence 1: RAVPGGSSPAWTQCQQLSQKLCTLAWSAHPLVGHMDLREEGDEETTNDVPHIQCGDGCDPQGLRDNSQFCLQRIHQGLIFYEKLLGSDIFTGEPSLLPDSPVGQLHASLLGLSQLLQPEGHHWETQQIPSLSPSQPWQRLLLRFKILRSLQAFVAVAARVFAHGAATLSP
T1 sequence 2: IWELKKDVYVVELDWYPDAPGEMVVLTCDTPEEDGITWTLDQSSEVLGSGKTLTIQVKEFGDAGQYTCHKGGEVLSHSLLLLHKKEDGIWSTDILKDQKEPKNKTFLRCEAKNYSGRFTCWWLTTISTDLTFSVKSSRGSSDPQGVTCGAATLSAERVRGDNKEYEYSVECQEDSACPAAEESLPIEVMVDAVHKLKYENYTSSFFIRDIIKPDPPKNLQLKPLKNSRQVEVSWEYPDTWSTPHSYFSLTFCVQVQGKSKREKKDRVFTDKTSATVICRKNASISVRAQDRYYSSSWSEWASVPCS
Assay: SPR Biacore, purified mAb captured on anti-human IgG, human IL-23 64-0.062 nM
Recorded endpoint: kon (M⁻¹ s⁻¹)
Record the value in M⁻¹ s⁻¹, omitting the unit from your answer.

Indicate its recorded kon; the binder in question is A24AM18 (antibody, human IgG1, kappa, V domains shown) VH: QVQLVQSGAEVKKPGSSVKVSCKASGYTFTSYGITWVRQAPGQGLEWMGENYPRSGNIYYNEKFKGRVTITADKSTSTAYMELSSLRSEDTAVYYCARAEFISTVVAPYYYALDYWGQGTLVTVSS VL: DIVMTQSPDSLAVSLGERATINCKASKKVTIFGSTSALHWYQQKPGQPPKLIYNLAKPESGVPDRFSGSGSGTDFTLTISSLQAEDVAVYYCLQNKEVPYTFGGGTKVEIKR
2.16e+06
